biological target: Beta-adrenergic receptor kinase 1 (Homo sapiens) (UniProt P25098); test: GRK2 binders displacing RNA aptamer, biochemical, validation, human GRK2, bead flow cytometry (AID 488806); conditions: bead-bound GRK2, FAM-aptamer displacement, at 10 µM, hits give high values
Sequence (P25098 whole entry, looked up): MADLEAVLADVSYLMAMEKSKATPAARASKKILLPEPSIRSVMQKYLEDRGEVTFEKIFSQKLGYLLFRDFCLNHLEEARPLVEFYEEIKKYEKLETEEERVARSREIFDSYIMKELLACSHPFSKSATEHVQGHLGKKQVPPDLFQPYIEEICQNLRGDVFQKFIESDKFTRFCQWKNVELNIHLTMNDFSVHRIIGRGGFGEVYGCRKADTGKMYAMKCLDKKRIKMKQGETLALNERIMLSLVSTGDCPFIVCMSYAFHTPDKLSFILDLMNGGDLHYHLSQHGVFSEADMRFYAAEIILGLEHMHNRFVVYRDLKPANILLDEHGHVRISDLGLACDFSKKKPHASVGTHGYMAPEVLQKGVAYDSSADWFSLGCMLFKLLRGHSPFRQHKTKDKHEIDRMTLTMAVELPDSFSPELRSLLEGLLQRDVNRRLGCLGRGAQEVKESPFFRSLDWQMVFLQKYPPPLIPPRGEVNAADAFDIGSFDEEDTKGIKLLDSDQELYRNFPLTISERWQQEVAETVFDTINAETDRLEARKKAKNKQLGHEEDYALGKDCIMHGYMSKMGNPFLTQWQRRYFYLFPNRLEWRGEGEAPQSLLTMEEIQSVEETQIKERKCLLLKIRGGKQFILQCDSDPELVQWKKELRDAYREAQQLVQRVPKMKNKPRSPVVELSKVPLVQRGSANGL
test readout: aptamer binding inhibition (%)
Respond numerically; units are % and should not be typed.

molecule	aptamer binding inhibition (%)
COCCCN1C(=O)/C(=C\c2cccs2)C(C(=O)OC)=C1C	2
Cc1ccc(S(=O)(=O)NC(C(=O)Oc2ccc3c(C(F)(F)F)cc(=O)oc3c2)c2ccccc2)cc1 (centres undefined)	-1
c1ccc(-c2ccc(C(c3ccccc3)n3ccnc3)cc2)cc1 (centres undefined)	7

API: the following record is the query input.
aptamer binding inhibition reported for this molecule O=C(/C=C/c1ccccc1)NCC1(c2ccccc2)CCOCC1 : -1
